Where do these numbers come from? They come from PubChem BioAssay (NCI).

Tested on: SF-268 CNS
Assay: NCI tumour cell line growth inhibition, 48 h
REPORTED_METRIC: TGI

Answered cases to consult:
[N-]=[NH+]CC(=O)OC(COCc1ccccc1)COCc1ccccc1 | > 100 µM
CNn1c(C)n[nH]c1=O | > 100 µM

Inquiry: Request - read-out TGI | tested on SF-268 CNS | molecule CCOC(=O)C1C(c2ccc(OC)cc2)c2c([nH][nH]c2=O)CC1(O)OCC (stereo not given)
Reply text: > 100 µM

Inquiry: Next molecule up: `O=C(CC12CC3CC(CC(C3)C1)C2)NCCOCCOCCOCCNC(=O)c1cc2c(o1)C(=O)c1ccccc1C2=O`
Reply text: 5.59 µM

Inquiry: Moving on to `CCOC(=O)/C(C#N)=C1\c2c([nH]c(=S)[nH]c2=O)Oc2ccc3ccccc3c21`
Reply text: > 100 µM

###

Tested on: LOX IMVI melanoma
Test: NCI tumour cell line growth inhibition, 48 h
REPORTED_METRIC: TGI

Worked cases, TGI given:
O=C(O)c1ccccc1C(=O)Nn1cnnc1 | > 100 µM
Cc1nc2cc(N)c(F)cc2[nH]1 | > 100 µM
N#CC(Nc1ccccc1)c1ccc(C(C#N)Nc2ccccc2)cc1 (stereo unspecified) | > 100 µM
O=C(O)c1ccc(Nc2nc3ccccc3nc2-c2cccs2)cc1 | > 100 µM
O=C1c2cc([N+](=O)[O-])ccc2-c2cccc(F)c21 | > 100 µM

Next, consider the following compound.
Inquiry: Look up TGI for this compound: `COc1c2ccccc2c(OC)c2nc(C)ccc12`
Reply text: 56.1 µM

###

System: DLD-1 colon
Test: NCI tumour cell line growth inhibition, 48 h
REPORTED_METRIC: TGI

Cc1cc(C)nc(NS(=O)(=O)c2ccc(Nc3c4ccc(Cl)cc4nc4c(C(=O)Nc5ccc(S(=O)(=O)N=C(N)N)cc5)cccc34)cc2)n1 | > 100 µM
O=C(O)CC12C3C4C5C3C1C5C42 (stereo not given) | > 100 µM

Inquiry: Request body: readout TGI, system DLD-1 colon, query COC(=O)C12C(=O)O[C@H](C)C1(O)C(C)C(=O)N2C (stereo not given in full) . Return the value.
Reply text: > 100 µM

Inquiry: # iterate: `Cc1cccc2[s+]snc12`
Reply text: 74.9 µM

###

System: ACHN renal
Assay: NCI tumour cell line growth inhibition, 48 h; in the data active means GI50 below about 0.43 µM; inactive means the rest
Would you mind answering with one of these outcomes? T for active, F for inactive

Consider the following illustrative entries.
C=C1C(=O)[C@@]23CC1C(O)[C@@H](OC(C)=O)[C@@H]2C1(C)C(OC(C)=O)C[C@@H](OC(C)=O)C(C)(C)[C@@H]1C[C@H]3OC(C)=O (stereo partly specified) | F
CCC[CH2][Sn]([CH2]CCC)([O]C(=O)C(N)CSC)[O]C(=O)C(N)CSC (stereo unspecified) | F
COc1c(Cl)c2c(c(OC)c1OC)-c1ccc(SC)c(=O)cc1[C@@H](NC(=O)OCC(F)(F)F)CC2 | T
CC(C)CNc1nc(-c2ccccc2)nc2ccccc12 | F
O=C(Nc1cc[c]([Sb](=[O])([OH])[OH])cc1)c1ccccc1 | F

Inquiry: Hey, what did the test say about CCCCCCCCCCC(O)C1CCC(C(O)CCC(O)C2CCC(CCCCCCC[C@H](O)CC3=C[C@@H](C)OC3=O)O2)O1 (stereo partly specified) ?
Reply text: F

###

Test system: M14 melanoma
Experiment: NCI tumour cell line growth inhibition, 48 h
Below: a set of entries, each annotated with reported TGI.

Solved cases below.
O=C(Nc1ccc(F)cc1)C(=O)C(C1OC(=O)c2ccccc21)[N+](=O)[O-] (stereo unspecified) | > 100 µM
CC(=O)OC1COC(n2c(-c3ccc(Cl)cc3)cc(-c3ccccc3)c(C#N)c2=S)C(OC(C)=O)C1OC(C)=O (stereo unspecified) | > 31.6 µM
CSC1=N/C(=C\c2ccco2)C(=O)N1CN1CCCCC1 | > 100 µM

# context switch: different molecule, same TGI
Inquiry: Notebook entry, M14 melanoma assay: TGI of `COC(=O)c1c2c(c(C)[n+]([O-])c1C)C(=O)C=C(NCc1ccc(OC)cc1)C2=O` = ?
Reply text: 4.3 µM

###

Tested on: MDA-MB-231 breast
Assay: NCI tumour cell line growth inhibition, 48 h
Some compounds, each annotated with its measured TGI.

COc1cc(C2C3=C(COC3=O)Oc3cc4c(cc32)OCO4)ccc1OC(C)=O (stereo not given) | 27.1 µM

Inquiry: For `COc1ccc(-c2ccc(/C=N/n3c(COc4ccc(Cl)cc4Cl)nn(CN4CCN(C)CC4)c3=S)o2)c([N+](=O)[O-])c1` , what is its reported TGI?
Reply text: > 100 µM

Inquiry: // next record `N#Cc1c(Cl)/c(=C/O)c(=O)n2c1nc1ccccc12`
Reply text: > 100 µM

Inquiry: Now this one: `Cc1cc(-c2nnc(N)nc2-c2ccc(F)cc2)cc(Cl)n1`
Reply text: > 100 µM

Inquiry: Please do the same for `COc1cc2c(Oc3ccc4[nH]c(C)cc4c3F)ccnc2cc1OCC1(N)CC1` as well.
Reply text: 4.61 µM

Inquiry: Same question for `O=P([O-])(O)OP(=O)([O-])O.[NH-][C@@H]1CCCC[C@H]1[NH-].[Pt+4]` please.
Reply text: > 100 µM

Inquiry: Same again, this time with `CC1=NN(c2nc(N)nc(CSCc3nc(N)nc(N(C)C)n3)n2)C(C)(C)C1`
Reply text: > 100 µM

Inquiry: Continue with `CN1CCCCCC(=N\O)/C(=N/O)CCCCC1`
Reply text: > 100 µM

Inquiry: Try the compound `CC[Si](CC)(CC)OC[C@]1([C@@H]2COC(C)(C)O2)CC=CC(=O)O1`
Reply text: > 100 µM

Inquiry: Entry `Cc1ccc(-c2nc(N)nc3c2nnn3Cc2cccc(CO[C@H]3CCOC3)n2)o1` please
Reply text: > 100 µM

###

Tested on: CAKI-1 renal
Assay: NCI tumour cell line growth inhibition, 48 h
REPORTED_METRIC: GI50

NC(=N\N=C/c1cccc([N+](=O)[O-])c1)/C(N)=N\N=C/c1cccc([N+](=O)[O-])c1 | > 100 µM

Inquiry: For the compound shown here, `NC1CCCCC1N.O=S(=O)([O-])CCCN1CCOCC1.O=S(=O)([O-])CCCN1CCOCC1.[Pt+4]` , give the reported GI50.
Reply text: 5.01 µM

Inquiry: For `CC[O-].CC[O-].O=C1C(c2ccccc2)=C([O-])c2ccccc21.O=C1C(c2ccccc2)=C([O-])c2ccccc21.[Ti+4]` then?
Reply text: > 100 µM

###

Item-by-item account of GI50
Tested on: PC-3 prostate
Test: NCI tumour cell line growth inhibition, 48 h

Would you please look over these solved cases?
O=C(CC12CC3CC(CC(C3)C1)C2)NCCOCCOCCOCCNC(=O)c1cc2c(o1)C(=O)c1ccccc1C2=O | 1790 nM
COc1ccc2c(c1)OC1=C(C(=O)OC1)C2c1cc(OC)c(OC)c(OC)c1 (stereo not given) | 391 nM
COc1cccc(-c2nc3sccn3c2-c2ccnc(NCCNS(=O)(=O)c3ccccc3)c2)c1 | 1680 nM
O=C(Nc1cc[c]([Sb](=[O])([OH])[OH])cc1)c1ccccc1 | > 100000 nM
C=C1C(=O)[C@@]23CC1C(O)[C@@H](OC(C)=O)[C@@H]2C1(C)C(OC(C)=O)C[C@@H](OC(C)=O)C(C)(C)[C@@H]1C[C@H]3OC(C)=O (stereo not given in full) | 10.6 µg/mL
NC(=N\N=C/c1cccc([N+](=O)[O-])c1)/C(N)=N\N=C/c1cccc([N+](=O)[O-])c1 | > 100000 nM

Inquiry: Field request: GI50 | item: COc1cc2c(cc1OCCCCCCN1CCN(c3ncnc4ccccc34)CC1)N=CC1CCCN1C2=O (stereo not given)
Reply text: 50.8 nM

Inquiry: Another molecule: `Cc1ccc(-c2nc(N)nc3c2nnn3Cc2cccc(CO[C@H]3CCOC3)n2)o1`
Reply text: > 100000 nM

###

System: PC-3 prostate
Assay: NCI tumour cell line growth inhibition, 48 h
Where a SMILES comes first, the peptide text is derived from it. [ ]: non-standard residue; d: D form. The star is where a group is joined. ξ: configuration not given here. NMeN = CN[C@@H](CC(N)=O)C(=O)O; NMeV = CN[C@H](C(=O)O)C(C)C; ξNMeV = CNC(C(=O)O)C(C)C; Boc = CC(C)(C)OC(=O)*; ξNMeA = CNC(C)C(=O)O
TGI values, listed per item

COC(=O)C(C)N(C)C(=O)[C@H](CC(N)=O)N(C)C(=O)[C@@H]1CCCN1C(=O)[C@H](C(C)C)N(C)C(=O)C(C(C)C)N(C)C(=O)[C@@H](NC(=O)OC(C)(C)C)C(C)C (some centres undefined) (Boc-V[ξNMeV][NMeV]P[NMeN][ξNMeA]-OMe) | 50 µM
COc1ccc(C2=C(c3ccc(OC)c(OC)c3)C(=O)OC2)cc1 | > 100 µM
Cc1ccc(Nc2nc(N)nc3c2ncn3C2OC(CO)C(O)C2O)cc1 (centres undefined) | > 100 µM
COc1cc(C(c2cc3c(cc2O)OCO3)N2CCCCC2)cc(OC)c1OC (centres undefined) | 30.6 µM
CC1=NN(c2nc(N)nc(CSCc3nc(N)nc(N(C)C)n3)n2)C(C)(C)C1 | > 100 µM
COC(=O)C(=O)C(C(=O)C(=O)Nc1ccccc1C(C)=O)c1nc2ccc(C(=O)c3ccccc3)cc2[nH]c1=O (centres undefined) | > 100 µM

Inquiry: Fill in: TGI of `Cc1cc(-c2nnc(N)nc2-c2ccc(F)cc2)cc(Cl)n1` is ___
Reply text: > 100 µM

Inquiry: What do you have for `C=C(C)CN(CC#N)CC(=C)C` ?
Reply text: > 100 µM

Inquiry: Next compound: `CNn1c(C)n[nH]c1=O`
Reply text: > 100 µM
